Test System: Human recombinant PKCβ1 (Homo sapiens)
Sequence (P05771 whole entry): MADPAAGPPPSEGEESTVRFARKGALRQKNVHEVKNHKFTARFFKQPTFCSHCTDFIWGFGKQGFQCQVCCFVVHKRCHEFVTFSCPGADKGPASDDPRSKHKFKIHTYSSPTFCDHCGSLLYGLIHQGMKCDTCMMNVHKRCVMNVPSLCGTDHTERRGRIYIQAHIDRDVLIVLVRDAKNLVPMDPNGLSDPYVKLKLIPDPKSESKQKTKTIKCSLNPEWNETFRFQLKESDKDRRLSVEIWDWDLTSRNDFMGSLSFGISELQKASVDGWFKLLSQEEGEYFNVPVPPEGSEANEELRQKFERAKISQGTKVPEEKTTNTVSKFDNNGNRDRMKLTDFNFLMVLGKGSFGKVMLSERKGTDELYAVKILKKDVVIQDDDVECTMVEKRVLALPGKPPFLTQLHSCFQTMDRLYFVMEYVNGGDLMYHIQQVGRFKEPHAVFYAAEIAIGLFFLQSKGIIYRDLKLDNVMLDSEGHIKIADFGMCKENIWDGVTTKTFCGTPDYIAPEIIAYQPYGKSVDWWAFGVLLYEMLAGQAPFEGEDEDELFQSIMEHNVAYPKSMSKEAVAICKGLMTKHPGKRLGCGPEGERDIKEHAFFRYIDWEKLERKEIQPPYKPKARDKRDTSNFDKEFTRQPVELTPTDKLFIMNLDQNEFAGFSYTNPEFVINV
Assay Info: Protein Kinase Cβ1 Assay
Stated Conditions: human recombinant PKCβ1, 10 μM ATP
Parameter: IC50 (nM)
Numbers only here, please. The scale is nM.

# returns recorded IC50 (system: Human recombinant PKCβ1 (Homo sapiens)) for CN1CCN(c2cc(C3=C(c4c[nH]c5ccccc45)C(=O)NC3=O)c3ccccc3n2)CC1 8

----------
Test System: Human recombinant PKCδ (Homo sapiens, UniProt Q05655)
Sequence (Q05655 whole entry): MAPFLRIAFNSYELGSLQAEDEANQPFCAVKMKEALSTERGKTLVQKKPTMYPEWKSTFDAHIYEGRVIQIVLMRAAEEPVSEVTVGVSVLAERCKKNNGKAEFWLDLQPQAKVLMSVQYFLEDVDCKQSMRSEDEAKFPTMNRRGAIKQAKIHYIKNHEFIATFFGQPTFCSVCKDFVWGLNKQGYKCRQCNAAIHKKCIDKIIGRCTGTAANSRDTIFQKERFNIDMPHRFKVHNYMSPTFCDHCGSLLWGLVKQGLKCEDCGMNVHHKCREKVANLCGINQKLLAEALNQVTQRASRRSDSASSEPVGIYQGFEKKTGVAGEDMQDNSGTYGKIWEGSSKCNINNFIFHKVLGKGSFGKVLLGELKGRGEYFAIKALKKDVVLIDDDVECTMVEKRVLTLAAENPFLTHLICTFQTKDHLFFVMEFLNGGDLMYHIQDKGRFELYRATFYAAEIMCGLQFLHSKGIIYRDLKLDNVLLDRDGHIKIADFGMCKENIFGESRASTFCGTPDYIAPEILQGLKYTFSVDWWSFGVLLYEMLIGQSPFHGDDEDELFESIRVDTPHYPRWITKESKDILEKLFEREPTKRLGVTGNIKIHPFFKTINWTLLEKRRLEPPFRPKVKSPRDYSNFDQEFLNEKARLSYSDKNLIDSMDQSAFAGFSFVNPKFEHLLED
Assay Info: Protein Kinase Cδ Assay
Stated Conditions: 10 μM ATP
Parameter: pIC50
Answer as the number alone; pIC50 is minus log10 of concentration in mol/L.

Give its pIC50 value. Item: CN1CCN(c2cc3ccccc3c(C3=C(c4c[nH]c5ccccc45)C(=O)NC3=O)n2)CC1 7.74
